Target: T1, human C5 (human, UniProt P01031 19-673; P01031 678-1676, limits assumed)
T1 construct: In the sheep RBC lysis assay, C5 is the C5 of normal human serum; also called huC5
Assay: ELISA, antibody titrated on C5-coated plate
reported_property: affinity determined by ELISA, huC5

1. E54H (humanized anti-C5a IgG4 antibody) (antibody, V domains shown, Carries F29H and E54H in VH and Y96H in VL (Kabat) relative to 16D10) VH: QVQLVQSGAEVKKPGSSVKVSCKASGYTHTDHIIHWMRQAPGQGLEWMGYIYPRHGWTNYNENFKGRVTITADKSTSTAYMELSSLRSEDTAVYYCARERNLEYFDYWGQGTTVTVSS VL: DIVLTQSPASLAVSPGQRATITCKASQSVDYEGFNYMNWYQQKPGQPPKLLIYAASNLDSGVPARFSGSGSGTDFTLTINPVEAEDTANYYCQQSNEDPHTFGGGTKVEIKR    0.0601 nM
2. N97H (humanized anti-C5a IgG4 antibody) (antibody, V domains shown, Carries F29H and N97H in VH and Y96H in VL (Kabat)) VH: QVQLVQSGAEVKKPGSSVKVSCKASGYTHTDHIIHWMRQAPGQGLEWMGYIYPREGWTNYNENFKGRVTITADKSTSTAYMELSSLRSEDTAVYYCARERHLEYFDYWGQGTTVTVSS VL: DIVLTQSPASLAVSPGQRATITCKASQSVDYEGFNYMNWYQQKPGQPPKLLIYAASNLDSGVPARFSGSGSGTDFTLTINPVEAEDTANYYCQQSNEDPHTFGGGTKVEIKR    0.0682 nM
3. 16D10 (humanized anti-C5a IgG4 antibody) (antibody, V domains shown, also called WT (16D10); WT) VH: QVQLVQSGAEVKKPGSSVKVSCKASGYTFTDHIIHWMRQAPGQGLEWMGYIYPREGWTNYNENFKGRVTITADKSTSTAYMELSSLRSEDTAVYYCARERNLEYFDYWGQGTTVTVSS VL: DIVLTQSPASLAVSPGQRATITCKASQSVDYEGFNYMNWYQQKPGQPPKLLIYAASNLDSGVPARFSGSGSGTDFTLTINPVEAEDTANYYCQQSNEDPYTFGGGTKVEIKR    0.0288 nM

// next item, affinity determined by ELISA, huC5 requested
[Q] I'd like to know its affinity determined by ELISA, huC5. The binder in question is N92H (humanized anti-C5a IgG4 antibody) (antibody, V domains shown, Carries F29H in VH and N92H and Y96H in VL (Kabat); also called N92H antibody) VH: QVQLVQSGAEVKKPGSSVKVSCKASGYTHTDHIIHWMRQAPGQGLEWMGYIYPREGWTNYNENFKGRVTITADKSTSTAYMELSSLRSEDTAVYYCARERNLEYFDYWGQGTTVTVSS VL: DIVLTQSPASLAVSPGQRATITCKASQSVDYEGFNYMNWYQQKPGQPPKLLIYAASNLDSGVPARFSGSGSGTDFTLTINPVEAEDTANYYCQQSHEDPHTFGGGTKVEIKR
[A] 0.12 nM
